system.tested: human GPR119 (hGPR119) (Homo sapiens, UniProt Q8TDV5)
Construct: expressed in transfected cells
Sequence (Q8TDV5 whole entry): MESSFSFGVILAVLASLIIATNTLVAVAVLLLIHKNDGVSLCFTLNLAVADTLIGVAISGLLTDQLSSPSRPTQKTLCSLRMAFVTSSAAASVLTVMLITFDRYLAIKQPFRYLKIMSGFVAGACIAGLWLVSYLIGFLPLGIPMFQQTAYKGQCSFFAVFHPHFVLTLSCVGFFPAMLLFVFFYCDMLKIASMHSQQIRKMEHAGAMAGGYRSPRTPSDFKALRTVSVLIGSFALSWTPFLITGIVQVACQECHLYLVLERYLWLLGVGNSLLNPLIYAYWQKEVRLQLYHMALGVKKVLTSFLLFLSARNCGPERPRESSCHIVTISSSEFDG
run.description: cAMP accumulation assay (cAMP Gs dynamic HTRF kit)
Type: cell-based
condition: 1 h; CHO-K1 cells stably expressing hGPR119; % activity normalized to Max/Min controls; 4-parameter fit
property: Emax

Below: 5 compounds and their reported Emax.
{"columns": ["compound", "property", "test.result"],
 "data": [
  ["O=C(Cc1ccc(OCCCC2CC3(CCN(c4ncc(Cl)cn4)CC3)C2)cc1F)N1CC(CNC[C@H](O)[C@@H](O)[C@H](O)[C@H](O)CO)C1", "Emax", "100 to 130%"],
  ["CCc1cnc(N2CCC(CCCOc3ccc(CC(=O)N4CC(CNCC(CO)CO)C4)c(F)c3)CC2)nc1", "Emax", "≥ 130%"],
  ["O=C(Cc1c(F)cc(OCCCC2CCN(C(=O)OC3(C(F)(F)F)COC3)CC2)cc1F)N1CC(CNC[C@H](O)[C@@H](O)[C@H](O)[C@H](O)CO)C1", "Emax", "100 to 130%"],
  ["O=C(Cc1ccc(OCCCC2CCN(c3ncc(Cl)cn3)CC2)cc1F)NCCCCCC(=O)N1C[C@H](O)[C@@H](O)C1", "Emax", "≥ 130%"],
  ["CCCc1cnc(N2CCC(CCCOc3ccc(CC(=O)N4CC(CNCCNC(=O)NC(CO)(CO)CO)C4)c(F)c3)CC2)nc1", "Emax", "100 to 130%"]
]}

Quick request: Emax for each listed item, please.
1. O=C(CC1(O)CN(C(=O)Cc2ccc(OCCCC3CCN(c4ncc(Cl)cn4)CC3)cc2F)C1)NCC(CO)(CO)CO
2. O=C(Cc1ccc(CC(=O)N2CC(CNC[C@H](O)[C@@H](O)[C@H](O)[C@H](O)CO)C2)c(F)c1)OCCC1CCN(c2ncc(Cl)cn2)CC1 (racemic)
3. O=C(Cc1ccc(OCCCC2CCN(c3ncc(Cl)cn3)CC2)cc1F)NCCCCC(=O)NC(CO)CO

1: 100 to 130%; 2: 100 to 130%; 3: ≥ 130%
